measurementTarget: Aryl hydrocarbon receptor (Homo sapiens) (UniProt P35869)
Sequence (P35869 whole entry, looked up): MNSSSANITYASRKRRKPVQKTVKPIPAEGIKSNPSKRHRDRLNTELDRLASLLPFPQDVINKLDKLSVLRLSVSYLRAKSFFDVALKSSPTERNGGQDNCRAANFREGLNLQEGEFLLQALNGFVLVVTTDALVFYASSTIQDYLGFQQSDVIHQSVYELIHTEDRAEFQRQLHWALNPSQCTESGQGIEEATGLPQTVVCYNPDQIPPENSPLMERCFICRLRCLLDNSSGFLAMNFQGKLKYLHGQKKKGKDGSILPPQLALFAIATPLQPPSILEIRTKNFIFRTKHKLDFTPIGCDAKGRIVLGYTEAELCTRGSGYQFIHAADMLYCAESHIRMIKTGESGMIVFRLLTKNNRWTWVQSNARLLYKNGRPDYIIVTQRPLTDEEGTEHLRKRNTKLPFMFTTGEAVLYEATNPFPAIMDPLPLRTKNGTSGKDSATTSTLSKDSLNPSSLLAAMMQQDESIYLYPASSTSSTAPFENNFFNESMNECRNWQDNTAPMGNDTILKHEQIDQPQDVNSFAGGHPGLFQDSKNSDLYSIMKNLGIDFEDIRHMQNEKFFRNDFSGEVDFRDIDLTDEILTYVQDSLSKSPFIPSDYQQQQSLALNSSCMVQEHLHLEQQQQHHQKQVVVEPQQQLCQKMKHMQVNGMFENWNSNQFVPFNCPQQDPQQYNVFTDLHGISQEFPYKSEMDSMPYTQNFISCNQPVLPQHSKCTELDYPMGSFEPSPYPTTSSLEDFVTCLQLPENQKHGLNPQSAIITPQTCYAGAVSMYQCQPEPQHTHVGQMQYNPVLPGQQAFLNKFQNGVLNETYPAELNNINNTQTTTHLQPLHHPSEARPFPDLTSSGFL
assayDetails: ATG_Ahr_CIS: Attagene CIS-FACTORIAL HepG2 Assay for human Aryl Hydrocarbon Receptor (Ahr) (AID 2282930)
statedConditions: HepG2 AhR cis-factorial reporter transcription; actives raise or lower the signal
The source made the active and inactive calls. The calls were made as follows: active = hit-call score of the fitted dose curve at least 0.9, where 1 is the maximum; inactive = score below 0.9.
Labels: True = active, False = inactive

compound	classAssignment
CCCCCCC(O)CCOC(C)=O (stereo not drawn)	False
CCCCCCCC1CCCC1=O (stereo not drawn)	False
OCCCO	False
CC(C)OB(OC(C)C)OC(C)C	False
CC(O)CNCC(C)O (stereo not drawn)	False
CC(=O)CC(C)(C)C1CCCCC1	False
CC1=CC[C@@H](C(C)(C)O)CC1	False
C=CC(C)(CCC=C(C)C)OC(=O)CC (stereo not drawn)	False
CC/C=C\C#N	False
CN(C)CCC=C1c2ccccc2CCc2ccccc21	False
NNC(=O)OCc1ccccc1	False
O=C(O)c1cc2ccccc2cc1O	True
COc1ccc(C(C)=O)cc1	False
C/C=C(\C)C(=O)OC/C=C(\C)CCC=C(C)C	False
CCCc1ccc(N)cc1	False
C1CCCNCC1	True
c1ccc(OCCOc2ccccc2)cc1	True
CCCCCCCCCCCCS	False
